target: CDK2 (Homo sapiens); construct: endogenous in cells; host or cells: MDA-MB-231; experiment: CDK protein degradation activity (Western blotting), CDK2; type: cell-based; conditions: MDA-MB-231 cells, 1 μM, 16 hours, Western blot
VALUE_KIND: Enzyme degradation CDK2 (% remaining) @ 1 μM (%)
Field format: number, assumed %, no unit text.

COMPOUND	ENDPOINT_UNIT	RESULT_NUMBER
O=C1CC[C@H](N2C(=O)c3ccc(N4CC(C(=O)N5CCC(CN6CCN(c7ccc(Nc8ncnc9c8ncn9C8CC(NC(=O)Cc9ccccc9)C8)cc7)CC6)CC5)C4)cc3C2=O)C(=O)N1 (stereo partly shown)	%	50
O=C1CCC(N2C(=O)c3cc(F)c(N4CCC(C(=O)N5CCC(CN6CCC(CCNc7ncnc8c7ncn8[C@H]7C[C@@H](NC(=O)Cc8ccccc8)C7)CC6)CC5)CC4)cc3C2=O)C(=O)N1 (stereo partly shown)	%	40
O=C1CCC(N2C(=O)c3ccc(NCC(=O)N4CCC(CN5CCC(CNc6ncnc7c6ncn7[C@H]6C[C@@H](NC(=O)c7c(Cl)cccc7Cl)C6)CC5)CC4)cc3C2=O)C(=O)N1 (stereo partly shown)	%	10
COc1ccc(C(=O)N2CCC3(CC2)CC(N2CCC(c4ccc(Nc5ncnc6c5ncn6[C@H]5C[C@@H](NC(=O)Cc6ccccc6)C5)cc4)CC2)C3)cc1N1CCC(=O)NC1=O	%	60
O=C1CCC(N2C(=O)c3cccc(OCC(=O)N4CCC(CCCN5CCN(c6ccc(Nc7ncnc8c7ncn8[C@H]7C[C@@H](NC(=O)Cc8ccccc8)C7)cc6)CC5)CC4)c3C2=O)C(=O)N1 (stereo partly shown)	%	30

Input Cc1cccc(C(=O)NC2CC(n3cnc4c(NCc5ccc(OCC6CCN(C(=O)COc7cccc8c7C(=O)N([C@H]7CCC(=O)NC7=O)C8=O)CC6)cc5)ncnc43)C2)n1 (stereo partly shown) , output reported Enzyme degradation CDK2 (% remaining) @ 1 μM.
50

Identify Enzyme degradation CDK2 (% remaining) @ 1 μM associated with the compound O=C1CC[C@@H](c2ccc(OCC(=O)N3CCC(OCCN4CCN(c5ccc(Nc6ncnc7c6ncn7C6CC(NC(=O)Cc7ccccc7)C6)cc5)CC4)CC3)cc2)C(=O)N1 (stereo partly shown)
40

Quick one: give measured Enzyme degradation CDK2 (% remaining) @ 1 μM for Cc1cccc(C(=O)N[C@H]2C[C@@H](n3cnc4c(NC5CCN(CCC6CCN(c7ccc8c(c7)C(=O)N([C@H]7CCC(=O)NC7=O)C8=O)CC6)CC5)ncnc43)C2)n1
60

State its Enzyme degradation CDK2 (% remaining) @ 1 μM: Cc1cccc(C(=O)N[C@H]2C[C@@H](n3cnc4c(NCc5cccc(N6CCN(CC7CCN(c8cccc9c8C(=O)N([C@H]8CCC(=O)NC8=O)C9=O)CC7)CC6)c5)ncnc43)C2)n1
100

Provide one value: measured Enzyme degradation CDK2 (% remaining) @ 1 μM of O=C1CC[C@@H](c2cccc(OCC(=O)N3CCC4(CC3)CC(N3CCN(c5ccc(Nc6ncnc7c6ncn7C6CC(NC(=O)Cc7ccccc7)C6)cc5)CC3)C4)c2)C(=O)N1 (stereo partly shown)
30

Consider the compound O=C1CCC(N2C(=O)c3cc(F)c(N4CCC5(CC4)CC(N4CCN(c6ccc(Nc7ncnc8c7ncn8[C@H]7C[C@@H](NC(=O)c8c(Cl)cccc8Cl)C7)cc6)CC4)C5)cc3C2=O)C(=O)N1 (stereo partly shown) and give its recorded Enzyme degradation CDK2 (% remaining) @ 1 μM.
30

Respond only with Enzyme degradation CDK2 (% remaining) @ 1 μM recorded for O=C1CC[C@H](N2C(=O)c3ccc(OCC(=O)N4CCC(CN5CCC(CNc6ncnc7c6ncn7C6CC(NC(=O)c7c(Cl)cccc7Cl)C6)CC5)CC4)cc3C2=O)C(=O)N1 (stereo partly shown)
70

Hello, please tell me recorded Enzyme degradation CDK2 (% remaining) @ 1 μM for this one: O=C1CC[C@H](N2C(=O)c3cccc(OCC(=O)N4CCN(CC5CCN(c6ccc(Nc7ncnc8c7ncn8C7CC(NC(=O)Cc8ccccc8)C7)cc6)CC5)CC4)c3C2=O)C(=O)N1 (stereo partly shown)
0

Report Enzyme degradation CDK2 (% remaining) @ 1 μM, nothing else, for this compound: O=C1CC[C@H](N2C(=O)C=C(N3CCC(C(=O)N4CCC5(CC4)CC(N4CCN(c6ccc(Nc7ncnc8c7ncn8C7CC(NC(=O)Cc8ccccc8)C7)cc6)CC4)C5)CC3)C2=O)C(=O)N1 (stereo partly shown)
20

# return recorded Enzyme degradation CDK2 (% remaining) @ 1 μM for entry Cc1cccc(C(=O)NC2CC(n3cnc4c(NCCCN5CCN(C(=O)CNc6cccc7c6C(=O)N([C@@H]6CCC(=O)NC6=O)C7=O)CC5)ncnc43)C2)n1 (stereo partly shown)
90
